Listing of entries alongside the reported viscosity.
conditions: 308.15 K; 101.33 kPa
measured-parameter: viscosity (mPa·s)

[
  {
    "compound": "CCOC(=O)CCC(=O)OCC",
    "measured-parameter": "viscosity",
    "result-number": 1.973
  },
  {
    "compound": "COCC(C)OCC(C)O (centres undefined)",
    "measured-parameter": "viscosity",
    "result-number": 2.765
  },
  {
    "compound": "CN1CCC[C@H]1c1cccnc1",
    "measured-parameter": "viscosity",
    "result-number": 3.156
  },
  {
    "compound": "OCCCl",
    "measured-parameter": "viscosity",
    "result-number": 2.15
  }
]

---

settings: 313.15 K; 100 kPa
measured-parameter: viscosity (mPa·s)

[
  {
    "structure-smiles": "NC=O",
    "result-number": 2.351
  },
  {
    "structure-smiles": "OCCCl",
    "result-number": 1.882
  },
  {
    "structure-smiles": "CCn1cc[n+](C)c1.[Cl][Al-]([Cl])([Cl])[Cl+][Al-]([Cl])([Cl])[Cl]",
    "result-number": 9.79
  },
  {
    "structure-smiles": "OCCCO",
    "result-number": 21.85
  }
]

---

Quick list: viscosity per entry.
conditions: 298.15 K; 101.33 kPa

[
  {
    "molecule": "COCC(C)OCC(C)O (centres undefined)",
    "viscosity, mPa·s": 3.691
  },
  {
    "molecule": "C=CCO",
    "viscosity, mPa·s": 1.232
  },
  {
    "molecule": "CCOC(=O)CCC(=O)OCC",
    "viscosity, mPa·s": 2.466
  },
  {
    "molecule": "NC=O",
    "viscosity, mPa·s": 3.217
  }
]
